Target: KRAS-G12D protein (Homo sapiens, UniProt P01116, G12D)
Sequence (P01116 1-188 isoform P01116-2 G12D): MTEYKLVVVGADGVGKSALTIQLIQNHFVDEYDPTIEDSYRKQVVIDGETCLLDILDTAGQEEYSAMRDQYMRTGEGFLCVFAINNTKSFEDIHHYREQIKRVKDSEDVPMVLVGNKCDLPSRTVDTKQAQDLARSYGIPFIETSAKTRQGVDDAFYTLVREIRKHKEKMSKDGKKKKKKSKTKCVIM
Experiment: SOS-mediated nucleotide exchange assay (BODIPY-GDP / Tb-streptavidin TR-FRET)
Type: biochemical
*1 amine or outer side, *2 acyl side, *3 side chain or, on linkers, in order; H or OH if unused. Where a SMILES comes first, the peptide text is derived from it. Bridges are numbered along the chain shown (N, C = ends). [ ]: non-standard residue; d: D form. Phe(4-guanidino) = N=C(N)Nc1ccc(C[C@H](N)C(=O)O)cc1; N(3-imidazol-1-ylpropyl)Gly = O=C(O)CNCCCn1ccnc1; Gly(N-(CH2)3-guanidino) = N=C(N)NCCCNCC(=O)O; Phe(2-F) = N[C@@H](Cc1ccccc1F)C(=O)O; NMe3Pal = CN[C@@H](Cc1cccnc1)C(=O)O; X1 = O=C(C12CC(CN[*:1])(C1)C2)[*:2]; NMeF = CN[C@@H](Cc1ccccc1)C(=O)O; PhLac = O=C(O)[C@@H](O)Cc1ccccc1; 3Pal = N[C@@H](Cc1cccnc1)C(=O)O; d3Pal = N[C@H](Cc1cccnc1)C(=O)O; Ahp(2) = CCCCC[C@H](N)C(=O)O; Cba = N[C@@H](CC1CCC1)C(=O)O; αMeC = C[C@](N)(CS)C(=O)O; NMeA = CN[C@@H](C)C(=O)O; Nle = CCCC[C@H](N)C(=O)O
reported-metric: EC50 (µM)
Entry rule: numbers only, all in µM.

Worked cases, EC50 given:
CCCCC[C@@H]1NC(=O)[C@H](Cc2ccc(OC)cc2)NC(=O)[C@H](CC2CCC2)NC(=O)[C@H](Cc2ccc(NC(=N)N)cc2)NC(=O)CN(CCCNC(=N)N)C(=O)[C@H](Cc2ccccc2)NC(=O)CSC[C@@](C)(C(N)=O)NC(=O)[C@H](Cc2ccccc2)N(C)C1=O [compound 361] ({CH2CO}-F[Gly(N-(CH2)3-guanidino)][Phe(4-guanidino)][Cba]Y(Me)[Ahp(2)][NMeF][αMeC]-NH2; thioether N-8)	0.037
CCCC[C@@H]1NC(=O)[C@H](Cc2cccnc2)NC(=O)[C@H](C)N(C)C(=O)[C@H](Cc2ccccc2)OC(=O)C23CC(CNC(=O)[C@H](Cc4cccnc4)N(C)C(=O)[C@H](CCCC)NC(=O)[C@H](Cc4ccccc4F)NC1=O)(C2)C3 [compound 244] (cyclo([3Pal][Nle][Phe(2-F)][Nle][NMe3Pal][X1][PhLac][NMeA]))	0.036

Now, please, on to the next compound.
query: Consider the compound shown here: CCCC[C@@H]1NC(=O)[C@H](Cc2ccccc2F)NC(=O)[C@H](CC2CCC2)NC(=O)[C@@H](Cc2cccnc2)NC(=O)CN(CCCn2ccnc2)C(=O)[C@H](Cc2ccccc2)NC(=O)C23CC(CNC(=O)[C@H](Cc4cccnc4)N(C)C1=O)(C2)C3 [compound 181] (cyclo(F[N(3-imidazol-1-ylpropyl)Gly][d3Pal][Cba][Phe(2-F)][Nle][NMe3Pal][X1])) What is its recorded EC50?
result: 1.23

====

Target: KRAS-G12D protein (Homo sapiens, UniProt P01116, G12D)
Assay: SOS-mediated nucleotide exchange assay (BODIPY-GDP / Tb-streptavidin TR-FRET)
Type: biochemical
*1 amine or outer side, *2 acyl side, *3 side chain or, on linkers, in order; H or OH if unused. Where a SMILES comes first, the peptide text is derived from it. [ ]: non-standard residue; d: D form. X46 = O=C([C@H](Cc1cccnc1F)N[*:1])[*:2]; Phe(2-F) = N[C@@H](Cc1ccccc1F)C(=O)O; NMe3Pal = CN[C@@H](Cc1cccnc1)C(=O)O; X1 = O=C(C12CC(CN[*:1])(C1)C2)[*:2]; PhLac = O=C(O)[C@@H](O)Cc1ccccc1; NMeA = CN[C@@H](C)C(=O)O; Nle = CCCC[C@H](N)C(=O)O
Listed below: pEC50 values for each entry.
In textbook form, pEC50 equals minus log to base ten of the concentration in mol/L.

CCCC[C@@H]1NC(=O)[C@H](Cc2cccnc2F)NC(=O)[C@H](C)N(C)C(=O)[C@H](Cc2ccccc2)OC(=O)C23CC(CNC(=O)[C@H](Cc4cccnc4)N(C)C(=O)[C@H](CCCC)NC(=O)[C@H](Cc4ccccc4F)NC1=O)(C2)C3 [compound 117] (cyclo([NMe3Pal][X1][PhLac][NMeA][X46][Nle][Phe(2-F)][Nle]))	5.84

Let us move to another entry and its pEC50.
query: Given the entry CCCC[C@@H]1NC(=O)[C@H](Cc2ccc(OC)cc2)NC(=O)[C@H](CC2CCC2)NC(=O)[C@H](Cc2cccnc2)NC(=O)[C@H](CCCNC(=N)N)NC(=O)[C@H](Cc2ccccc2)NC(=O)C2CCC3(CN(C3)C(=O)[C@H](Cc3ccccc3)N(C)C1=O)O2 (single isomer, unassigned) , what pEC50 was observed with KRAS-G12D protein (Homo sapiens, UniProt P01116, G12D)?
result: 6.18

Every entry's value here was drawn from patent US20260001914A1.
